- experimental.system: MRP2 (Rattus norvegicus, UniProt Q63120)
- Sequence (Q63120 whole entry): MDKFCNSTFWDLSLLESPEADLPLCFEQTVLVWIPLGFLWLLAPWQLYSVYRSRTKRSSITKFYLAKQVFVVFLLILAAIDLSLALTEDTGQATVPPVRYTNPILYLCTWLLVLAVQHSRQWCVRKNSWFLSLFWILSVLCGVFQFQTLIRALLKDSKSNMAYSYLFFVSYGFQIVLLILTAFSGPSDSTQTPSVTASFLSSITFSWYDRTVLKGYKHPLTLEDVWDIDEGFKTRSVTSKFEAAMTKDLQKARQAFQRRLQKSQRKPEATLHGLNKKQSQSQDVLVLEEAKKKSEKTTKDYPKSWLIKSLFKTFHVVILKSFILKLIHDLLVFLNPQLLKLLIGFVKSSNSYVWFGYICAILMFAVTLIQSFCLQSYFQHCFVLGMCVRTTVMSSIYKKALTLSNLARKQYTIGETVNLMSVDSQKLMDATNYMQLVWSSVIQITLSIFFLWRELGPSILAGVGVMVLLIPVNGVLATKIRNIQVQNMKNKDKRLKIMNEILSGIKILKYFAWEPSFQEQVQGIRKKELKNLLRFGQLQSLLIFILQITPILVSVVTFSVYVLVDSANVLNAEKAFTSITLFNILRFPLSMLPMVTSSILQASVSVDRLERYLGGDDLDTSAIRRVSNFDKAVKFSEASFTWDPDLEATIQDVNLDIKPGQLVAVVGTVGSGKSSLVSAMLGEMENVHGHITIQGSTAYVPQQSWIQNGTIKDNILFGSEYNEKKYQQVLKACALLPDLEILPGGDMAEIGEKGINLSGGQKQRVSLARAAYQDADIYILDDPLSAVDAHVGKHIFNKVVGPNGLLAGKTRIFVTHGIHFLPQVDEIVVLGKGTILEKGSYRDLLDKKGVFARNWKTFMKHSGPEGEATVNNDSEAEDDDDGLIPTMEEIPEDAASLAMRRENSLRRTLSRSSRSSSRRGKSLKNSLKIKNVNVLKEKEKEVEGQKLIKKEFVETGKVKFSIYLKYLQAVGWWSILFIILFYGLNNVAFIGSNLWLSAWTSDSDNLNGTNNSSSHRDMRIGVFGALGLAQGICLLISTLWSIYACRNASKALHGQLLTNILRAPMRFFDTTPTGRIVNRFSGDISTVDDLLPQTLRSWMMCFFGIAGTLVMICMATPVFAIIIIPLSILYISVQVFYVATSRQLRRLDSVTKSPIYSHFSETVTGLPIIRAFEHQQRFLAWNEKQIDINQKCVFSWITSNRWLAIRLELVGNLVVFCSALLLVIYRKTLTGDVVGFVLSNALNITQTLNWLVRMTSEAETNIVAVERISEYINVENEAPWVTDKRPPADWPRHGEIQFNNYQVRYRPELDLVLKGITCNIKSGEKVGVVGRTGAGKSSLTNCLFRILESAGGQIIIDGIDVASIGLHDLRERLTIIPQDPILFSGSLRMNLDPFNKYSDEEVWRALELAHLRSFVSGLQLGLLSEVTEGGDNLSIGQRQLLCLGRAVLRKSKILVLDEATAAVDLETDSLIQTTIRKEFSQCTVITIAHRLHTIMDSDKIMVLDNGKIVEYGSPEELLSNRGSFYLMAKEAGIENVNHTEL
- experiment.description: Influence of emodin on MRP2 function: pravastatin bidirectional transport in the presence of emodin (Ussing chamber)
- Assay type: in vitro ADME
- Design: intestinal segments including duodenum, jejunum, ileum, and colon from anesthetized rats were immediately removed by surgery; from tissue; host or cells: stripped rat intestine (jejunum and ileum in validation; jejunum for the emodin studies)
- experimental.parameters: rat, pH 6.5, with emodin 370 μM on mucosal side, pravastatin 47 μM, rat jejunum, emodin 370 μM on mucosal side; read-out: Papp M-S in the presence of emodin
assay.metric: Papp at 47 μM (×10⁻⁶ cm/s)
// return numeric value only (unit: ×10⁻⁶ cm/s, not printed)

# lookup: Papp at 47 μM of CC[C@H](C)C(=O)O[C@H]1C[C@H](O)C=C2C=C[C@H](C)[C@H](CC[C@@H](O)C[C@@H](O)CC(=O)O)[C@H]21 [Pravastatin]
106
